Test system: TO-N3 (biotin conjugate)
Assay: pull-down binding Z-score (relative to library population); higher = stronger binding
Settings: RNA library: Library-2
Returns the class for an entry based on its pull-down binding Z-score. Class ranges: low = under -0.1, mid = from -0.1 up to 0.7, high = 0.7 and over

Examples from the recorded data:
Sequence string	Assigned label
UCAUAAAGAUGAUC [hsa-mir-8067]	mid
AUUGACAUUAAUGGCAAUCUUCAUCCAGAUUCUGCCACUCUUGUUAGU [DMSMaPseq_invitro_SARS-CoV-2_Motif_73]	low
AAGUGGAGCAGGAAUGCGCUUUUCUCCACUG [hsa-mir-5187]	mid
CUUCCGAGUCAUAGGAAACUAUGACAUACAGAUCAACAGGGGCUCGCUUGAGCCCCCCAGCCAGUCGGAGG [mMTR1]	low
CUCAGAGGGCUGAAGUGGUUGUGGGGAGGGGCUUCUGGG [hsa-mir-4296]	high

Category lookup for the sequence AGAUCUAUGUCAUAUAUACAGAUAU [hsa-mir-3924] high

Category lookup for the sequence CUGGGGGCAAUCAGUUUCUGG [IAV_invivo_HA_4_Motif_20+IAV_invivo_HA_4_Motif_20] high

Category lookup for the sequence CCCAAUGUUGUUAAACCACACGAAAAGGG [IAV_invivo_PA_3_Motif_15+IAV_invivo_PA_3_Motif_15] mid

###

Test system: TO-3-N3-2 (biotin conjugate)
Assay: pull-down binding Z-score (relative to library population); higher = stronger binding
Conditions: RNA library: Library-2
Binary call on pull-down binding Z-score: Met from -0.3 upward, Not met beneath that.

Sequence string	Tested target	Assigned label
GCCAGUCAGCGCUCACAUUAAGGCUGAC [hsa-mir-2277]	TO-3-N3-2 (biotin conjugate)	Met
CCAUAAUGAAUCUGG [DMSMaPseq_invitro_SARS-CoV-2_Motif_27]	TO-3-N3-2 (biotin conjugate)	Met
GCCUUGUGGCAUGGAGUUCAAGC [hsa-mir-107]	TO-3-N3-2 (biotin conjugate)	Met

Decide: pull-down binding Z-score of CUUGCAGAAUUAAUGGAAUGCUG [hsa-mir-676] >= -0.3? Met

Decide: pull-down binding Z-score of GAAGUUACAACAACUCUGGAAGAAACUAAGUUCCUCACAGAAAACUUGUUACUUU [DMSMaPseq_invitro_SARS-CoV-2_Motif_72] >= -0.3? Not met

Decide: pull-down binding Z-score of UGAGUGCCGACUGGCGCCUG [hsa-mir-4750] >= -0.3? Not met

Decide: pull-down binding Z-score of GCUAUGCAAAUGGC >= -0.3? Not met

Decide: pull-down binding Z-score of GUCUAGCUGUCCACGAGUGCUUUGUUAAGCGUGUUGACUGGAC >= -0.3? Not met

Decide: pull-down binding Z-score of CUAAAUGGUACCCACUUUAUUUAG [hsa-mir-5687] >= -0.3? Met

Decide: pull-down binding Z-score of UCUGCUUUGAUGAAAUAAAGCAGA [hsa-mir-4773-2] >= -0.3? Not met

###

Test system: TO-3-N3 (biotin conjugate)
Test: pull-down binding Z-score (relative to library population); higher = stronger binding
Settings: RNA library: Library-2
Returns the class for an entry based on its pull-down binding Z-score. Class ranges: lower: < -0.4; middle: ≥ -0.4 and < 0.2; upper: ≥ 0.2

Category lookup for the sequence CACCAUCUGGUG [DMSMaPseq_invitro_SARS-CoV-2_Motif_188] upper

###

Tested on: TO-N3 (biotin conjugate)
Assay: pull-down binding Z-score (relative to library population); higher = stronger binding
Conditions: RNA library: Library-2
Reported pull-down binding Z-score values for a set of sequences
Enter the number alone.

Sequence string	Meas value
UCUUCAGGUUGGACAGCUGGUGCUGCAGCUUAUUAUGUGGGUUAUCUUCAACCUAGGA [DMSMaPseq_invitro_SARS-CoV-2_Multi_66_ComplexLevel_1]	0.0485
AAGACACUAUCUUACAACAACAGGGCUCUU [hsa-mir-550b-1]	1.01
GUUGACAGGACACGAGUAACUCGUCUAUCUUCUGCAGGCUGCUUACGGUUUCGUCCGUGUUGCAGCCGAUCAUCAGC	0.461

Let us move to another entry and its pull-down binding Z-score.
Please indicate pull-down binding Z-score recorded for GGGUGGGCGGGGGCGGCCGGUGGGAACCCCGCCCCGCCCCGCGCCCGCACUCACCC [hsa-mir-7108] 5.22

###

Tested on: TO-N3 (biotin conjugate)
Assay: pull-down binding Z-score (relative to library population); higher = stronger binding
Conditions: RNA library: Library-2
Reported pull-down binding Z-score values for a set of sequences
Enter the number alone.

Sequence string	Measured quantity	Meas value
GGGAAAGAAGUCCU [IAV_invivo_HA_4_Motif_8+IAV_invivo_HA_4_Motif_8]	pull-down binding Z-score	-0.705
GUGUAGAGGCGGAGCACAG [hsa-mir-1471]	pull-down binding Z-score	0.847
GGAGCUGGCUGCUGGCCUCAGUUCU [hsa-mir-5001]	pull-down binding Z-score	0.0865
GAGUUACACAGAAUGUUCUCUAUGAGAACCAAAAAUUGAUUGCCAACCAAUUUAAUAGUGCUAUUGGCAAAAUUCAAGACUC	pull-down binding Z-score	-0.581

Jot down pull-down binding Z-score (TO-N3 (biotin conjugate)) of CACAUGAAGGUAAAACAUUUUAUGUUUUACCUAAUGAUG . -0.73

###

Tested on: TO-3-N3-2 (biotin conjugate)
Test: pull-down binding Z-score (relative to library population); higher = stronger binding
Details: RNA library: Library-2
Reported pull-down binding Z-score values for a set of sequences

Before answering, review these 3 worked examples.
Sequence string	pull-down binding Z-score
GCCAGUGUGUAAAAUGAGAACUGAUA [hsa-mir-3074]	0.757
GGGAGAGACGAACAGUCGAUUGCC [IAV_invivo_PB2_1_Motif_17+IAV_invivo_PB2_1_Motif_17]	-0.268
CGAGGUGGGCUAGGCUCGGGCCCGUGGCG [hsa-mir-3656]	0.185

Please indicate pull-down binding Z-score recorded for CAGGCUGCUAAACAACAGAACGAGCACUG [hsa-mir-378f] -0.122

Please indicate pull-down binding Z-score recorded for CACCAAAGGGUUAAGGGUUUGCUCUGGAG [hsa-mir-4653] 0.0957

Please indicate pull-down binding Z-score recorded for GUGUCGCCCCACGAGGGGGACUGU [hsa-mir-4322] -0.362

Please indicate pull-down binding Z-score recorded for CAUAUGUGUAACAGACAUACAUACAUACAUAUG [hsa-mir-3688-2] -0.463

Please indicate pull-down binding Z-score recorded for UUUCUCUUAUGUGAAAAAAAAGAAG [hsa-mir-525] -0.174

Please indicate pull-down binding Z-score recorded for GCUGAAACACAGUUGGUUUGUGUACACUGGC [hsa-mir-24-2] -0.521

Please indicate pull-down binding Z-score recorded for UAAGUGUUAUAGCACUUA [hsa-mir-374a] -0.541

###

Reported pull-down binding Z-score values for a set of sequences
System: TO-3-N3-2 (biotin conjugate)
Test: pull-down binding Z-score (relative to library population); higher = stronger binding
Settings: RNA library: Library-2
Enter the number alone.

Before answering, review these 4 worked examples.
Sequence string	Meas value
ACAGUUUGAGGGUCUAUGAUACCACCCGGUACAGGAGAUAACUGU [hsa-let-7g]	-0.136
CUUGUGGUGAAGUGGACCGCACAAG [hsa-mir-99a]	0.00618
GUGAGUUAGAAAAGCUCAAUUCAC [hsa-mir-4457]	-0.365
GUUGUCGCUUCCAAGAAAAGGACGAAGAUGACAAU [SHAPE_invitro_SARS-CoV-2_Motif_248]	0.224

Please indicate pull-down binding Z-score recorded for CACUCCCGGGAUCCCCAGGGAC [hsa-mir-3176] -0.144

###

Test system: TO-3-N3 (biotin conjugate)
Assay: pull-down binding Z-score (relative to library population); higher = stronger binding
Conditions: RNA library: Library-2
Returns the class for an entry based on its pull-down binding Z-score. Class ranges: low = under -0.4, middle = from -0.4 up to -0.09, high = -0.09 and over

Sequence string	Assigned label
CACACACAAUCACCGUGUG [hsa-mir-3118-2_3118-3_3118-4]	high
UUACAGAAGAGGUUGGCCACACAGAUCUAAUGGCUGCUUAUGUAG	low
GAAACAUCUUUUAC [hsa-mir-4514]	low
CCCGGAAAUAGCAGGAAGACCCAAAGUAAGAGAUCAAGCUGGG [IAV_invivo_HA_4_Motif_10+IAV_invivo_HA_4_Motif_10]	middle

Category lookup for the sequence GGCGCUGGGACCCCACUAGGGUGGCGCC [hsa-mir-4488] high

Category lookup for the sequence GCUGAAACACAGUUGGUUUGUGUACACUGGC [hsa-mir-24-2] low

Category lookup for the sequence CAGGCAAGAAGGAUACUUACCUG [U1snRNP5ss-25] middle

Category lookup for the sequence CCCAUAAGGGUCGAAUGGG [hsa-mir-4713] high

Category lookup for the sequence CAUAUGUAUGUAUGUAUGUCUGUUACACAUAUG [hsa-mir-3688-1] low
